# PROTOCOL NOTES: activity coefficient (dimensionless); of the first substance listed, at infinite dilution; xn = mol fraction of the nth substance listed
# SETTINGS: 313.1 K; 101.33 kPa; Liquid; Chromatography; x1 = 0
Record Fulfilled whenever activity coefficient is at 20 or higher; record Not fulfilled when lower.

Before answering, review these 2 worked examples.
{"columns": ["COMPOUND", "ASSIGNED CLASS"],
 "data": [
  ["CCCCCC [hexane] + CCCC[n+]1ccc(C)cc1.F[B-](F)(F)F", "Fulfilled"],
  ["CC1CCCC1 [methylcyclopentane] + CCCCn1cc[n+](C)c1.F[B-](F)(F)F", "Fulfilled"]
]}

Could you tell me if the measured activity coefficient of Cc1ccccc1 [toluene] + CCCC[n+]1ccc(C)cc1.F[B-](F)(F)F reaches 20 or more?
Not fulfilled

Could you tell me if the measured activity coefficient of CCCCCCCCCC [decane] + CCCCn1cc[n+](C)c1.F[B-](F)(F)F reaches 20 or more?
Fulfilled

Could you tell me if the measured activity coefficient of Cc1ccccc1C [1,2-dimethylbenzene] + CCCCn1cc[n+](C)c1.F[B-](F)(F)F reaches 20 or more?
Not fulfilled

Could you tell me if the measured activity coefficient of CCCCCCCCCC [decane] + CCCC[N+]1(C)CCCC1.O=S(=O)([N-]S(=O)(=O)C(F)(F)F)C(F)(F)F reaches 20 or more?
Fulfilled

Could you tell me if the measured activity coefficient of Cc1ccccc1 [toluene] + CCCC[N+]1(C)CCCC1.O=S(=O)([N-]S(=O)(=O)C(F)(F)F)C(F)(F)F reaches 20 or more?
Not fulfilled

Could you tell me if the measured activity coefficient of CCCCCC [hexane] + CCCC[N+]1(C)CCCC1.O=S(=O)([N-]S(=O)(=O)C(F)(F)F)C(F)(F)F reaches 20 or more?
Not fulfilled

* * *

# PROTOCOL NOTES: activity coefficient (dimensionless); of the first substance listed, at infinite dilution; xn = mol fraction of the nth substance listed
# SETTINGS: 353.1 K; 101.33 kPa; Liquid; Chromatography; x1 = 0
Provide the recorded activity coefficient for the entries that follow.
Answers are plain numbers.

Sample records with activity coefficient:
{"columns": ["COMPOUND", "activity coefficient"],
 "data": [
  ["Cc1ccccc1C [1,2-dimethylbenzene] + CCCCn1cc[n+](C)c1.F[B-](F)(F)F", 4.49],
  ["CCCCCCCCC [nonane] + CCCC[N+]1(C)CCCC1.O=S(=O)([N-]S(=O)(=O)C(F)(F)F)C(F)(F)F", 26.8],
  ["CC1CCCCC1 [methylcyclohexane] + CCCC[N+]1(C)CCCC1.O=S(=O)([N-]S(=O)(=O)C(F)(F)F)C(F)(F)F", 6.76]
]}

Kindly review the next compound as well.
Recorded activity coefficient for CCCCCC [hexane] + CCCCn1cc[n+](C)c1.F[B-](F)(F)F , please?
45.2

* * *

# PROTOCOL NOTES: activity coefficient (dimensionless); of the first substance listed, at infinite dilution; xn = mol fraction of the nth substance listed
# SETTINGS: 333.1 K; 101.33 kPa; Liquid; Chromatography; x1 = 0
READOUT TYPE: activity coefficient
One number for each entry.

Sample records with activity coefficient:
{"columns": ["COMPOUND", "READOUT TYPE", "VAL"],
 "data": [
  ["Cc1ccccc1 [toluene] + CCCC[N+]1(C)CCCC1.O=S(=O)([N-]S(=O)(=O)C(F)(F)F)C(F)(F)F", "activity coefficient", 1.29],
  ["CCCCCCCC [octane] + CCCC[N+]1(C)CCCC1.O=S(=O)([N-]S(=O)(=O)C(F)(F)F)C(F)(F)F", "activity coefficient", 20.8],
  ["CCCCCC [hexane] + CCCCn1cc[n+](C)c1.F[B-](F)(F)F", "activity coefficient", 47.8],
  ["CC1CCCCC1 [methylcyclohexane] + CCCC[n+]1ccc(C)cc1.F[B-](F)(F)F", "activity coefficient", 34.8],
  ["CC1CCCCC1 [methylcyclohexane] + CCCCn1cc[n+](C)c1.F[B-](F)(F)F", "activity coefficient", 40.5]
]}

For each entry beneath this line, provide reported activity coefficient.
1. CCCCCCCCC [nonane] + CCCC[N+]1(C)CCCC1.O=S(=O)([N-]S(=O)(=O)C(F)(F)F)C(F)(F)F
2. CCCCCCCCC [nonane] + CCCC[n+]1ccc(C)cc1.F[B-](F)(F)F

1. 29.2
2. 153

For each entry beneath this line, provide reported activity coefficient.
1. Cc1ccccc1C [1,2-dimethylbenzene] + CCCCn1cc[n+](C)c1.F[B-](F)(F)F
2. Cc1ccccc1 [toluene] + CCCCn1cc[n+](C)c1.F[B-](F)(F)F

1. 4.51
2. 3.33

Data provenance: the NIST ThermoML archive (doi:10.1021/acs.jced.9b00170)
